METHOD: Simulated Gastric Fluid (SGF) Stability Assay
Assay type: in vitro ADME
STATED_CONDITIONS: simulated gi fluid; porcine pepsin, pH 2, 37° C.; monomers, Table 6
Where a SMILES comes first, the peptide text is derived from it.
MEASUREMENT_TYPE: half-life

Reported half-life of CC(C)C[C@@H]1NC(=O)[C@H]([C@@H](C)O)NC(=O)[C@H](CC(=O)O)NC(=O)[C@H](CO)NC(=O)[C@H](CCCNC(=N)N)N(C)C(=O)c2ccccc2CSC(C)(C)[C@@H](C(=O)N[C@@H](Cc2c[nH]c3ccccc23)C(=O)N[C@H](CCC(=O)O)C(N)=O)NC1=O [compound 97] (HELM PEPTIDE1{[meR].S.D.T.L.[Pen].W.[dE].[am]}|CHEM1{[O=C(c1ccccc1C[*:2])[*:1]]}$PEPTIDE1,CHEM1,1:R1-1:R1|PEPTIDE1,CHEM1,6:R3-1:R2$$$V2.0) : > 3 h
